Assay: Plasma pharmacokinetics after single oral dose of Δ8-THCV in MCT oil (LC-MS/MS, non-compartmental analysis)
Type: in vivo, human
Conditions: human, plasma, oral, 25 mg, 1 h; 25 mg Δ8-THCV dose; Median (IQ Range)
Experimental: The study was a two-phase, dose-ranging, placebo-controlled trial in 21 healthy participants to assess the safety, tolerability, PK, and PD of an oral formulation of Δ8-THCV. A detailed description of the study was published elsewhere. […] Plasma samples were analyzed using a validated high-performance liquid chromatography–tandem mass spectrometry (LC-MS/MS) assay. […] For the PK analysis, concentrations below the lower limit of quantification were set to 0 ng/mL. […]
concentration at 1 h by entry:
Only the number, expressed in ng/mL, is required.

Task: Request the reported concentration at 1 h associated with CCCc1cc(O)c2c(c1)OC(C)(C)[C@@H]1CC=C(C(=O)O)C[C@@H]21
Output: 7.1

Task: Try the compound CCCc1cc(O)c2c(c1)OC(C)(C)[C@@H]1CC=C(C)C[C@@H]21 [Δ8-THCV, Δ8-tetrahydrocannabivarin]
Output: 0

Task: Try the compound CCCCCc1cc(O)c2c(c1)OC(C)(C)[C@@H]1CC=C(C(=O)O)CC21 (single isomer, unassigned; (+)) [Δ8-THC-COOH, (+)-11-nor-Δ8-THC-9-carboxylic acid]
Output: 0

Continuing:
Task: Request the reported concentration at 1 h associated with CCCc1cc(O)c2c(c1)OC(C)(C)[C@@H]1CCC(C(=O)O)=C[C@@H]21
Output: 0

Task: Try the compound CCCc1cc(O)c2c(c1)OC(C)(C)[C@@H]1CCC(C)=C[C@@H]21 [Δ9-THCV, Δ9-tetrahydrocannabivarin]
Output: 0

Task: Try the compound CCCc1cc(O)c2c(c1)OC(C)(C)[C@@H]1CC=C(CO)C[C@@H]21 (racemic) [11-OH-Δ8-THCV, (±)-11-hydroxy-Δ8-THCV]
Output: 0

----------
experiment: Plasma pharmacokinetics after single oral dose of Δ8-THCV in MCT oil (LC-MS/MS, non-compartmental analysis); assay type: in vivo, human; conditions: human, plasma, oral, 50 mg, 2 h; 50 mg Δ8-THCV dose; Mean (SD, %CV)
Please use Criterion met whenever concentration at 2 h is not below 0.4 ng/mL, and Criterion not met whenever it is.

Record excerpt, results attached:
Task: Hello, I need to know if CCCc1cc(O)c2c(c1)OC(C)(C)[C@@H]1CC=C(C)C[C@@H]21 [Δ8-THCV, Δ8-tetrahydrocannabivarin] has measured concentration at 2 h not below 0.4 ng/mL. Thanks!
Output: Criterion met

Task: Try the molecule CCCc1cc(O)c2c(c1)OC(C)(C)[C@@H]1CCC(C(=O)O)=C[C@@H]21
Output: Criterion met

Task: Try the molecule CCCCCc1cc(O)c2c(c1)OC(C)(C)[C@@H]1CC=C(C(=O)O)CC21 (single isomer, unassigned; (+)) [Δ8-THC-COOH, (+)-11-nor-Δ8-THC-9-carboxylic acid]
Output: Criterion not met

Task: Try the molecule CCCc1cc(O)c2c(c1)OC(C)(C)[C@@H]1CCC(C)=C[C@@H]21 [Δ9-THCV, Δ9-tetrahydrocannabivarin]
Output: Criterion not met

With those in mind, consider the next molecule.
Task: Hello, I need to know if CCCc1cc(O)c2c(c1)OC(C)(C)[C@@H]1CC=C(C(=O)O)C[C@@H]21 has measured concentration at 2 h not below 0.4 ng/mL. Thanks!
Output: Criterion met

Reference source for all entries: paper PMC11676667
